Every entry's value here was drawn from paper PMC4207131.

TARGET DESC: CD38 catalytic domain (shCD38) (Homo sapiens, UniProt P28907, N100D/N164A/N209D/N219D)
Sequence (P28907 43-300 N100D/N164A/N209D/N219D limits assumed): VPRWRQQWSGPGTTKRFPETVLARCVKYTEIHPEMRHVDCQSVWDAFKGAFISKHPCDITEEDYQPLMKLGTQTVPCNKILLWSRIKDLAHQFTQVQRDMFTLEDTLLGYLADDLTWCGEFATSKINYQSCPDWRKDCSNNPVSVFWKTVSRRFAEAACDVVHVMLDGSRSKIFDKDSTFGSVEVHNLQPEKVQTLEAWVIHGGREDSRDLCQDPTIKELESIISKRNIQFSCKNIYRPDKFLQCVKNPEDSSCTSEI
PROCEDURE SUMMARY: Inhibition of shCD38-mediated cADPR hydrolysis (fluorimetric cycling assay)
Format: biochemical
Design: incubating 1 μM cADPR with 1 μg/mL CD38 catalytic domain for 10 min; made in house
MEASUREMENT CONDITIONS: 1 μM cADPR, 1 μg/mL CD38 catalytic domain, 10 min, 20–24 °C, 25 mM sodium acetate pH 4.5
Each entry below carries its recorded IC50.
The response must be a number in µM with no trailing unit.

Worked examples, 2 compounds total:
INSERT INTO measurements (smiles_text, measurement_kind, val) VALUES
  ('Nc1nc2c(=O)n3cnc2n1CCCCOP(=O)(O)OP(=O)(O)OC[C@H]1O[C@@H]3[C@H](O)[C@@H]1O', 'IC50', 3.3),
  ('[N-]=[N+]=Nc1nc2c(=O)n3cnc2n1CCCCOP(=O)(O)OP(=O)(O)OC[C@H]1O[C@@H]3[C@H](O)[C@@H]1O', 'IC50', 6.4);

Task item: Determine from records and report IC50 for `O=c1c2nc(Br)n3c2ncn1[C@@H]1O[C@H](COP(=O)(O)OP(=O)(O)OCCCC3)[C@@H](O)[C@H]1O`
Reply: 27
